Test summary: Half life in Sprague-Dawley rat at 1 mg/kg, iv measured upto 24 hrs by LC-MS/MS analysis
Type: ADME, organism-based
Condition notes: in vivo
Consider the following molecules and their measured half-life readings.
// note: answer is a bare numeric in h

INSERT INTO assay_data (molecule, unit_tag, value_measured) VALUES
  ('N#Cc1ccc2[nH]cc(CCCCN3CCN(c4ncc(-c5ccc(Cl)cc5)cn4)CC3)c2c1', 'h', 9.52),
  ('N#Cc1ccc2[nH]cc(CCCCN3CCN(c4ncc(-c5ccc(F)cc5F)cn4)CC3)c2c1', 'h', 7.53),
  ('N#Cc1ccc2[nH]cc(CCCCN3CCN(c4ccc5oc(C(N)=O)cc5c4)CC3)c2c1 [VILAZODONE]', 'h', 1.45);

Input: Provide half-life value for the following molecule: `N#Cc1ccc2[nH]cc(CCCCN3CCN(c4ncc(-c5cccc(C(N)=O)c5)cn4)CC3)c2c1`
Output: 1.59
